Each recorded value in this set is attributed to paper PMC11490551.

target-or-test-system: T1, OC2 (CUT-HOX DNA binding region, wild type) (human, UniProt O95948 330-485)
T1 sequence: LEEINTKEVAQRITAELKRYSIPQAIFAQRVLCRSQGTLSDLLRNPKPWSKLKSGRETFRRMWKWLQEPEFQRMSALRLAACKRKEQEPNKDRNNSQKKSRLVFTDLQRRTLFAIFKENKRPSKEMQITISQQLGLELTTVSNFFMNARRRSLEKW
experiment-notes: ITC; 25 C; ITC: 1X PBS pH 7.4, 0.005% Tween-20, 1 mM beta-ME, 25 C (also 12 and 30 C for heat capacity); BLI: 1X PBS, 0.5 mM TCEP, 0.005% Tween-20
condition-notes: protein: recombinant; tags: His6 removed by TEV
measurement-type: pKd
// scale note: pKd = -log10(conc_M); give the bare number

### Prompt Bench note: what pKd did PEG10 promoter DNA (12mer duplex) (dsDNA) DNA 1: AGATCGATTTGC DNA 2: GCAAATCGATCT show?
### Response 8.15
